// provenance: ChEMBL document CHEMBL4004835

So I've got IC50 readings for Histone-lysine N-methyltransferase, H3 lysine-79 specific (Homo sapiens, UniProt Q8TEK3), take a look.
recorded_metric: IC50 (µM)

Answered cases to consult:
- molecular_string: "c1ccc(Cc2nn3c(Cn4nnc5ccccc54)nnc3s2)cc1"
  IC50 (µM): 19.4
- molecular_string: "CC(C)(C)c1ccc(-c2nn3c(Cn4nnc5ccccc54)nnc3s2)cc1"
  IC50 (µM): 4.48
- molecular_string: "COc1cccc(-c2nn3c(Cn4nnc5ccccc54)nnc3s2)c1"
  IC50 (µM): 6.47
- molecular_string: "c1ccc2c(c1)nnn2Cc1nnc2sc(-c3ccc4c(c3)OCO4)nn12"
  IC50 (µM): 3.96

[I] Fc1ccc(-c2nn3c(Cn4nnc5ccccc54)nnc3s2)cc1
[II] Fc1cccc(-c2nn3c(Cn4nnc5ccccc54)nnc3s2)c1
Prompt: Kindly compare I with II and tell me which has the lower IC50 figure. Kindly state the label of the option you pick.
Completion: I
(I: 4.64 µM, II: 8.29 µM)

====

- test_system: Histone-lysine N-methyltransferase, H3 lysine-79 specific (Homo sapiens, UniProt Q8TEK3)
- test_description: Inhibition of N-terminal 6His-tagged human DOT1L (1 to 416 residues) expressed in Escherichia coli BL21(DE3) at 50 uM preincubated for 15 mins followed by [3H]-SAM addition measured after 120 mins by radioactive methylation assay
- Sequence (Q8TEK3 whole entry, looked up, the tested form may be a part): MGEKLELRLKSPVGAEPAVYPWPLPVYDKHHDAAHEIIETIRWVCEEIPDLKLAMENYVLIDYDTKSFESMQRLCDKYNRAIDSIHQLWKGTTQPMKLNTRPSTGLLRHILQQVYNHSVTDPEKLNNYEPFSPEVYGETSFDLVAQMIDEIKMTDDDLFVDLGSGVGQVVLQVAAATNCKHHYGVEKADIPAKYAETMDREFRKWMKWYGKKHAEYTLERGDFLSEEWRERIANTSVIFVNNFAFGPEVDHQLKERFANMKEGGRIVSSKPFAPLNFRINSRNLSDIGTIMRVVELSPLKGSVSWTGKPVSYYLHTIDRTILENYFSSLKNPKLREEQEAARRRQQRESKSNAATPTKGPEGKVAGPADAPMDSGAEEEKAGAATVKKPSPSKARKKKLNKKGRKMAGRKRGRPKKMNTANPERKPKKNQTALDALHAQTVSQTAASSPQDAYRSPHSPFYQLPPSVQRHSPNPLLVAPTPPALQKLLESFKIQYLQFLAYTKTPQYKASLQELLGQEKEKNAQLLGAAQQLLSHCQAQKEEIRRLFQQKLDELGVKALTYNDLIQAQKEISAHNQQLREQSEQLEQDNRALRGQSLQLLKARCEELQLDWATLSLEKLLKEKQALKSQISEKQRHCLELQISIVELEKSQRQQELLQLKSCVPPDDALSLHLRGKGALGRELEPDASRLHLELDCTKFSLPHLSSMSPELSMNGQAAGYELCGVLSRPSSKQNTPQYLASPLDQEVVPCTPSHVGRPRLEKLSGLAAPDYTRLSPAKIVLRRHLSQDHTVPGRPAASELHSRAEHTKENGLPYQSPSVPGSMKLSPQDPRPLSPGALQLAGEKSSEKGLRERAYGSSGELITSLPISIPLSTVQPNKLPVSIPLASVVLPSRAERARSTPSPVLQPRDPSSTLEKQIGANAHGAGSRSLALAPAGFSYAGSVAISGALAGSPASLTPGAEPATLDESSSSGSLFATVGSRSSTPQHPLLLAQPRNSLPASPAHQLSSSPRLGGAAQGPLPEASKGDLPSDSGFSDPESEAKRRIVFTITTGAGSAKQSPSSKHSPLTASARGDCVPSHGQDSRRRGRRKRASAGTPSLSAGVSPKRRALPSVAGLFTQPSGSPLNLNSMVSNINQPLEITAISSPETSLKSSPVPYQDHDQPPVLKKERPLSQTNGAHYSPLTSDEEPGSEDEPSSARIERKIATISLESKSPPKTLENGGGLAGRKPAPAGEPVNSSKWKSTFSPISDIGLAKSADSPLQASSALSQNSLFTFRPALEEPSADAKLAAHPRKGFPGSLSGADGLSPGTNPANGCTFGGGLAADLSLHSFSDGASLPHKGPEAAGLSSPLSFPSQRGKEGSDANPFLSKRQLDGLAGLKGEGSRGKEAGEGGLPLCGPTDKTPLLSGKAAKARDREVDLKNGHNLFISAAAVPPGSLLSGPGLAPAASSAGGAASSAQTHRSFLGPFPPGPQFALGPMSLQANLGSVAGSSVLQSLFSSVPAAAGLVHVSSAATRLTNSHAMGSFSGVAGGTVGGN
recorded_metric: inhibition (%)

- molecular_string: "Cc1ccc(OCc2nn3c(Cn4nnc5ccccc54)nnc3s2)cc1"
  unit_abbreviation: "%"
  inhibition: 52
- molecular_string: "c1ccc2c(c1)nnn2Cc1nnc2sc(-c3ccc4c(c3)OCCO4)nn12"
  unit_abbreviation: "%"
  inhibition: 66
- molecular_string: "CCOc1ccc(-c2nn3c(Cn4nnc5ccccc54)nnc3s2)cc1"
  unit_abbreviation: "%"
  inhibition: 50

[P] CCc1nnc2sc(-c3cccc(F)c3)nn12
[Q] Fc1cccc(-c2nn3c(Cn4nnc5ccccc54)nnc3s2)c1
Prompt: Kindly compare P with Q and tell me which has the lower inhibition figure. Kindly state the label of the option you pick.
Completion: P
(P: 13%, Q: 68%)

[A] Fc1cccc(-c2nn3c(-c4cccc(F)c4)nnc3s2)c1
[B] Fc1ccc(-c2nn3c(Cn4nnc5ccccc54)nnc3s2)cc1
[C] c1ccc2c(c1)nnn2Cc1nnc2sc(C34CC5CC(CC(C5)C3)C4)nn12
Prompt: Sort entries by inhibition from minimum to maximum value. In your reply, arrange the labels in the requested order.
Completion: A, C, B
(A: 11%, C: 38%, B: 69%)

====

- test_system: Histone-lysine N-methyltransferase, H3 lysine-79 specific (Homo sapiens, UniProt Q8TEK3)
- test_description: Inhibition of N-terminal 6His-tagged human DOT1L (1 to 416 residues) expressed in Escherichia coli BL21(DE3) at 50 uM preincubated for 15 mins followed by [3H]-SAM addition measured after 120 mins by radioactive methylation assay
recorded_metric: inhibition (%)

- molecular_string: "COc1cccc(-c2nn3c(Cn4nnc5ccccc54)nnc3s2)c1"
  inhibition (%): 70
- molecular_string: "Brc1cccc(-c2nn3c(Cn4cnc5ccccc54)nnc3s2)c1"
  inhibition (%): 62
- molecular_string: "c1ccc(-c2nn3c(Cn4nnc5ccccc54)nnc3s2)nc1"
  inhibition (%): 53
